Test: NCI Yeast Anticancer Drug Screen. Data for the rad50EPP+ strain (AID 151);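 also: 0% = growth of vehicle-treated control cultures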
Conditions: S. cerevisiae rad50 mutant strain, at 1.2 µM, active compounds read high
About 79,000 compounds went through this panel and 15% of them were active in at least one assay; those are over-represented in the sample as a whole. Activity calls are given as the source filed them. Rule as the data show it: active = growth inhibition above about 70%; inactive = the rest.
Recorded measurements of growth inhibition, one per entry

[
  {
    "compound": "c1ccc2c(c1)sc1cc3ccncc3cc12",
    "growth inhibition": "7% (inactive)"
  },
  {
    "compound": "O=[n+]1c2ccc(Cl)cc2n([O-])c2ccc(Cl)cc21",
    "growth inhibition": "9% (inactive)"
  },
  {
    "compound": "CCC/C(Cl)=N\\OC(=O)Nc1ccc(Br)cc1",
    "growth inhibition": "26% (inactive)"
  },
  {
    "compound": "N#C/C(=C\\c1cccc(OCc2ccccc2)c1)c1ccc([N+](=O)[O-])cc1",
    "growth inhibition": "-66% (inactive)"
  },
  {
    "compound": "COc1ccc(/C(C)=N/OC(=O)c2c(-c3ccccc3Cl)noc2C)cc1CN1CCOCC1",
    "growth inhibition": "-36% (inactive)"
  },
  {
    "compound": "CC(/C=C/c1ccc2c(c1)OCO2)[N+](=O)[O-] (stereo unspecified)",
    "growth inhibition": "73% (active)"
  },
  {
    "compound": "O=C(N=Nc1ccccc1Cl)NNc1ccccc1Cl",
    "growth inhibition": "17% (inactive)"
  },
  {
    "compound": "COC(=O)c1ccc([N+](=O)[O-])c(O)c1",
    "growth inhibition": "-3% (inactive)"
  },
  {
    "compound": "O=[N+]([O-])c1cccc2nc3ccccc3c(NCCCN3CCOCC3)c12",
    "growth inhibition": "19% (inactive)"
  },
  {
    "compound": "CCN(CC)CCN1C(=O)c2cccc3cc(OC)cc(c23)C1=O",
    "growth inhibition": "9% (inactive)"
  },
  {
    "compound": "Cn1c(N)nc(-c2ccc(Cl)cc2)c1SSc1c(-c2ccc(Cl)cc2)nc(N)n1C",
    "growth inhibition": "-6% (inactive)"
  }
]
